system: Bacillus subtilis; experiment: Antimicrobial activity against Bacillus subtilis assessed per disk; type: functional
MIC for assorted molecules

| molecule | MIC |
| --- | --- |
| CCc1nccc2c1[nH]c1c(OC)cccc12 | >60 µg |
| CCCc1nccc2c1[nH]c1ccccc12 | >120 µg |
| CCCCCCc1nccc2c1[nH]c1ccccc12 | >60 µg |
| CC1NC(C(=O)O)Cc2c1[nH]c1ccccc21 (stereo not given) | >60 µg |
| COC(=O)C1Cc2c([nH]c3ccccc23)C(C)N1 (stereo not given) | >60 µg |
